# STUDY_SYSTEM: Platelet-activating factor acetylhydrolase (Homo sapiens)
# Sequence (Q13093 whole entry): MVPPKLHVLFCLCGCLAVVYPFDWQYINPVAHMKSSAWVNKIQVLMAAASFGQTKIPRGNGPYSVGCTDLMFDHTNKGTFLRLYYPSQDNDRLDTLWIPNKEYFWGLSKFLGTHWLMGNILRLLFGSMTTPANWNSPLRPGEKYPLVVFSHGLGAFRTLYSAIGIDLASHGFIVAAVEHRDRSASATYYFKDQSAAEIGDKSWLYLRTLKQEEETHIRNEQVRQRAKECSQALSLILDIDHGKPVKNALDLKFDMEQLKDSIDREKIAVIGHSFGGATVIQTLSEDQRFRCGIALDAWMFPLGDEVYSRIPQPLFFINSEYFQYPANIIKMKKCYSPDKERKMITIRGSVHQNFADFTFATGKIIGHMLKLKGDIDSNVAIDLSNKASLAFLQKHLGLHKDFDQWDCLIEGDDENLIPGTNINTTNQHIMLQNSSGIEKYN
# PROTOCOL_TEXT: Inhibition of human recombinant LpPLA2
REPORTED_PROPERTY: pIC50
The meaning of pIC50 here: minus log10 of the concentration in molar units.

Fill in the recorded pIC50 for this compound, with Platelet-activating factor acetylhydrolase (Homo sapiens) as test system: CCN(CC)CCN(CC12CC(c3ccc(C(F)(F)F)cc3)(C1)C2)C(=O)Cn1c(SCc2ccc(F)cc2)nc(=O)c2c1CCC2
9.40

###

# PROTOCOL_TEXT: Kinetic solubility of the compound by chemiluminescent nitrogen detection assay
Catalogue of solubility kinetic values
Your answer should be a plain number; it is taken to be in µM.

Here are 2 compounds together with their reported answers.
GIVEN_SMILES: CCN(CC)CCN(Cc1ccc(-c2ccc(C(F)(F)F)cc2)cc1)C(=O)Cn1c(SCc2ccc(F)cc2)nc(=O)c2c1CCC2
solubility kinetic (µM): 8
--
GIVEN_SMILES: CCN(CC)CCN(CC12CC(c3ccc(C(F)(F)F)cc3)(C1)C2)C(=O)Cn1c(SCc2ccc(F)cc2)nc(=O)c2c1CCC2
solubility kinetic (µM): 74

Item under review: COCCN1CCC(N(CC23CC(c4ccc(C(F)(F)F)cc4)(C2)C3)C(=O)Cn2c(SCc3cccc(F)c3F)cc(=O)c3ccccc32)CC1 . Reported solubility kinetic?
32

###

# PROTOCOL_TEXT: Thermodynamic solubility of the compound in fasted state simulated intestinal fluid
# Assay type: ADME
# CONDITION_NOTES: read-out: Therm_solubility
Reported solubility thermodynamic values for the following molecules.
Field: numeric (µg/mL). Do not append units.

Answered examples (2):
GIVEN_SMILES: COCCN1CCC(N(Cc2ccc(-c3ccc(C(F)(F)F)cc3)cc2)C(=O)Cn2c(SCc3cccc(F)c3F)cc(=O)c3ccccc32)CC1
MEASURED_RESULT: 203

GIVEN_SMILES: CCN(CC)CCN(Cc1ccc(-c2ccc(C(F)(F)F)cc2)cc1)C(=O)Cn1c(SCc2ccc(F)cc2)nc(=O)c2c1CCC2
MEASURED_RESULT: 399

Lab note: next molecule to report on.
# solubility thermodynamic lookup, item COCCN1CCC(N(CC23CC(c4ccc(C(F)(F)F)cc4)(C2)C3)C(=O)Cn2c(SCc3cccc(F)c3F)cc(=O)c3ccccc32)CC1
635

###

# PROTOCOL_TEXT: Permeability of the compound at pH 7.4 by PAMPA
# Type: ADME
# CONDITION_NOTES: read-out: permeability
REPORTED_PROPERTY: Papp (×10⁻⁶ cm/s)
Write the answer as a number in ×10⁻⁶ cm/s, unit excluded.

Form field: reported Papp of CCN(CC)CCN(CC12CC(c3ccc(C(F)(F)F)cc3)(C1)C2)C(=O)Cn1c(SCc2ccc(F)cc2)nc(=O)c2c1CCC2
70.5
